target: Transient receptor potential cation channel subfamily V member 1 (Homo sapiens, UniProt Q8NER1); experiment: Antagonist activity at human TRPV1 expressed in HEK293 cells assessed as inhibition of capsaicin-induced Ca2+ influx by fluorescence based assay; assay type: cell-based
Sequence (Q8NER1 whole entry): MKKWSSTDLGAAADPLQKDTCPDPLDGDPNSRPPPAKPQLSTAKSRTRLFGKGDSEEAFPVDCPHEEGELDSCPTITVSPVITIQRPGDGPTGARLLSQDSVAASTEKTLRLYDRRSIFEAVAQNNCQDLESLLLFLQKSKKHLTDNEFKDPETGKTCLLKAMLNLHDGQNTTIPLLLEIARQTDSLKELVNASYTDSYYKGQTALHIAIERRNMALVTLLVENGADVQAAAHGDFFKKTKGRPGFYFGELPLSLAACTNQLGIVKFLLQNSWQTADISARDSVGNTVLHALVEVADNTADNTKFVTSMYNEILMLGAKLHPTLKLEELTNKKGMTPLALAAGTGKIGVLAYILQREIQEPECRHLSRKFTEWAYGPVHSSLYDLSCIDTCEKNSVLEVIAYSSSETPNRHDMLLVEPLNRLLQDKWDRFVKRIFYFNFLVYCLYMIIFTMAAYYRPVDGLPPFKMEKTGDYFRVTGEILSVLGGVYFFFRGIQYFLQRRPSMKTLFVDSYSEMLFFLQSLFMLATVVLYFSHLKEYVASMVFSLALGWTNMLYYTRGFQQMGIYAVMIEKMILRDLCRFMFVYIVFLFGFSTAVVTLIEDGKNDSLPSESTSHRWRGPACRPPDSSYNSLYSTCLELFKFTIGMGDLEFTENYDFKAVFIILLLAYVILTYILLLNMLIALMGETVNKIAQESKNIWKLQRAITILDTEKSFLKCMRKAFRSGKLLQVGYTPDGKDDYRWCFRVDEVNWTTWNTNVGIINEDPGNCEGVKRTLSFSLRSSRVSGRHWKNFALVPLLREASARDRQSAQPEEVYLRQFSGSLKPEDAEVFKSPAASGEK
Measurement Type: IC50 (nM)
Write the value in nM as a bare number.

Input line: Look up IC50: C=Cc1cc([C@@H](C)NC(=O)/C(C)=C/c2ccc(C(C)(C)C)cc2)ccc1NS(C)(=O)=O
Output line: 22

---

Target or system Prostaglandin G/H synthase 2 (Homo sapiens, UniProt P35354): recorded pIC50 listed per item.
pIC50 (log units): -log10 of the concentration in mol/L.

COc1cc(C(=O)NS(=O)(=O)c2ccc(-n3nc(C(F)(F)F)cc3-c3ccc(C)cc3)cc2)ccc1O = 7.96

Pending molecule:
Input line: Look up pIC50: COc1cc(/C=C/C(=O)NS(=O)(=O)c2ccc(-n3nc(C(F)(F)F)cc3-c3ccc(C)cc3)cc2)ccc1O
Output line: 7.64

The origin of these recorded values is ChEMBL document CHEMBL5518160.
